Catalogue of λmax readings, one per entry.
Test: UV spectra of compounds in solution (filtering parameters)
Format: physicochemical
Conditions: MeOH
Description: The evaluation of the sun protection parameters has been carried out using a UV-Vis spectrophotometer. The absorbance of the solutions of the test compounds dissolved in the different solvents (DMSO, MeOH, DMSO–H2O 4:6, DMSO–H2O 6:4, HE) at a concentration of 0.0015 (±0.000005)% was recorded in the range 290–400 nm using a 1 cm quartz cell at 1 nm intervals. […] The three parameters were determined, respectively, in DMSO and in methanol in order to perform a comparison (Table S1). […]
Report only the number, with the unit nm understood.

Worked examples follow.
compound	result-type	quantitative-readout
O=C(O)c1ccc2nc(-c3cccs3)sc2c1 [Compound 10b]	λmax	334.57
O=C(O)c1ccc2nc(-c3ccc[nH]3)sc2c1	λmax	341.63
c1coc(-c2nc3ccccc3s2)c1	λmax	316.40
O=C(O)c1ccc2nc(-c3ccco3)sc2c1	λmax	327.57
c1csc(-c2nc3ccccc3s2)c1 [Compound 10a, 2-(Thiophen-2-Yl)benzothiazole]	λmax	319.50
NS(=O)(=O)c1ccc2nc(-c3cccs3)sc2c1 [Compound 10c]	λmax	333.17
c1c[nH]c(-c2nc3ccccc3s2)c1	λmax	329.40
NS(=O)(=O)c1ccc2nc(-c3ccc[nH]3)sc2c1	λmax	341.40

--- query ---
Prompt: Find the recorded λmax belonging to NS(=O)(=O)c1ccc2nc(-c3ccco3)sc2c1 and report it.
Response: 325.30

---

Measured inhibition at 100 µg/mL of individual entries
Tested on: Epidermophyton floccosum
Assay: Antidermatophyte activity, plaque growth inhibition
Type: cell-based, Epidermophyton floccosum var. floccosum CBS 358.93
Conditions: 100 μg/mL, SDA, read-out: % Inhibition Growth E. floccosum

molecule	inhibition at 100 µg/mL
c1c[nH]c(-c2nc3ccccc3s2)c1	26%
c1coc(-c2nc3ccccc3s2)c1	68.8%
OC(Cn1cncn1)(Cn1cncn1)c1ccc(F)cc1F [Fluconazole, reference compound]	0.12%
O=C(O)c1ccc2nc(-c3ccc[nH]3)sc2c1	< 0%
c1csc(-c2nc3ccccc3s2)c1 [Compound 10a, 2-(Thiophen-2-Yl)benzothiazole]	54.1%
NS(=O)(=O)c1ccc2nc(-c3ccco3)sc2c1	36.4%

Prompt: Could you tell me which inhibition at 100 µg/mL is on file for O=C(O)c1ccc2nc(-c3cccs3)sc2c1 [Compound 10b] ?
Response: 28.3%

Prompt: Name the reported inhibition at 100 µg/mL value associated with the molecule O=C(O)c1ccc2nc(-c3ccco3)sc2c1
Response: 5.48%

Prompt: Form field: reported inhibition at 100 µg/mL of NS(=O)(=O)c1ccc2nc(-c3cccs3)sc2c1 [Compound 10c]
Response: 10.7%

Prompt: Requested field: inhibition at 100 µg/mL. Item: NS(=O)(=O)c1ccc2nc(-c3ccc[nH]3)sc2c1
Response: 24.7%

Prompt: Fill in the blank: the reported inhibition at 100 µg/mL of c1c[nH]c(-c2nc3ccccc3[nH]2)c1 [Lead 10, reference compound] is ____.
Response: 102%

---

Assay: UV spectra of compounds in solution (filtering parameters)
Format: physicochemical
Details: DMSO
result-type: λmax
Please answer using the number first and the unit second.

The following compounds have reported results that may help.
compound	λmax
O=C(O)c1ccc2nc(-c3cccs3)sc2c1 [Compound 10b]	340.00 nm
NS(=O)(=O)c1ccc2nc(-c3cccs3)sc2c1 [Compound 10c]	336.50 nm

Prompt: I have this compound here, c1csc(-c2nc3ccccc3s2)c1 [Compound 10a, 2-(Thiophen-2-Yl)benzothiazole] , and I need its recorded λmax.
Response: 321.80 nm

Prompt: I'd like to know its λmax. The compound in question is c1c[nH]c(-c2nc3ccccc3s2)c1
Response: 333.40 nm

Prompt: Record request: λmax value, item NS(=O)(=O)c1ccc2nc(-c3ccco3)sc2c1
Response: 329.00 nm

Prompt: Entry under review: O=C(O)c1ccc2nc(-c3ccco3)sc2c1 . Reported λmax?
Response: 331.90 nm

Prompt: Returns the measured λmax for the input compound. Input: O=S(=O)(O)c1ccc2[nH]c(-c3ccccc3)nc2c1 [PBSA, reference compound]
Response: 310.50 nm

Prompt: Which λmax is listed for O=C(O)c1ccc2nc(-c3ccc[nH]3)sc2c1 ?
Response: 348.87 nm

Prompt: Need λmax, item c1coc(-c2nc3ccccc3s2)c1
Response: 322.10 nm

Prompt: Bench note: what λmax did NS(=O)(=O)c1ccc2nc(-c3ccc[nH]3)sc2c1 show?
Response: 344.37 nm
